- TARGET_OR_SYSTEM: PCV2 Rep WT (catalytically inactive) (Porcine circovirus 2 (PCV2)) (UniProt Q8BB16)
- Sequence (Q8BB16 whole entry): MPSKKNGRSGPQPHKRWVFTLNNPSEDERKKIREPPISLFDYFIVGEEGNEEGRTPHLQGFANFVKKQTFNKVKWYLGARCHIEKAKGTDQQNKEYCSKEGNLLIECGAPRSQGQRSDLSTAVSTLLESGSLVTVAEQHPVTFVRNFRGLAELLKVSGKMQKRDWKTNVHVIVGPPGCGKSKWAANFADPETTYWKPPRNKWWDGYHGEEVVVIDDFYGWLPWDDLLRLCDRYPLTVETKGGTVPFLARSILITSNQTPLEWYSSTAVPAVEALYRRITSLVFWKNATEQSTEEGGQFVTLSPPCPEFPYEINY
- PROTOCOL_SUMMARY: fluorescence polarization
- APPLIED_CONDITIONS: 50 mM NaCl, 50 mM HEPES pH 8.0, 0.05% Tween-20, 1 mM DTT, 5 uM MnCl2 (SI legend: 50 uM Mn2+) or EDTA; 10 nM FAM substrate, protein from 1 uM in 1:2 dilutions …
For each of the sequences below, state its pKd.
Numbers only, as −log10 of the molar value.

>>> observed_value("CGUAAAAUAUUACCGUC [HUHRNA_FAM]")
7.00

From here, focus on the item given below.
Input line: Value lookup for pKd; key = CGTAAATATTACCGTC [HUHDNA_FAM]
Output line: 7.52

Just for reference, paper PMC13231165 is where these values come from.
